Biological target: Trib2-Luciferase (Luc-Trib2) fusion (Homo sapiens)
Assay: cell-based
Settings: HFF, read-out: Luciferase activity (%)
Overview of reported activity at 10 µM across a group of compounds:
// note: answer is a bare numeric in %

Example cases with answers are listed next.
>  <Compound>
Cc1ccc(C(=O)Nc2ccc(CN3CCN(C)CC3)c(C(F)(F)F)c2)cc1C#Cc1cnc2cccnn12

>  <Unit Of Measure>
%

>  <Reading>
42

$$$$
>  <Compound>
CCCOc1ccc(S(=O)(=O)NCCC2CCCN2C)cc1-c1nc2c(CCC)nn(C)c2c(=O)[nH]1 (centres unmarked)

>  <Unit Of Measure>
%

>  <Reading>
100

$$$$
>  <Compound>
Cc1cccn2c(=O)c(-c3nnn[nH]3)cnc12

>  <Unit Of Measure>
%

>  <Reading>
88

$$$$
>  <Compound>
CN(C)CCCN1c2ccccc2CCc2ccccc21

>  <Unit Of Measure>
%

>  <Reading>
86

$$$$
>  <Compound>
C[C@@H](CN1CC(=O)NC(=O)C1)N1CC(=O)NC(=O)C1

>  <Unit Of Measure>
%

>  <Reading>
100

$$$$
>  <Compound>
CCCOc1ccc(C(=O)OCCN(CC)CC)cc1N

>  <Unit Of Measure>
%

>  <Reading>
88

$$$$
>  <Compound>
C=C[C@]1(C)C[C@@H](OC(=O)CSC(C)(C)CNC(=O)[C@H](N)C(C)C)[C@]2(C)[C@H](C)CC[C@]3(CCC(=O)[C@H]32)[C@@H](C)[C@@H]1O

>  <Unit Of Measure>
%

>  <Reading>
83

$$$$
>  <Compound>
Cc1cn([C@@H]2C[C@@H](O)[C@H](CO)O2)c(=O)[nH]c1=O

>  <Unit Of Measure>
%

>  <Reading>
91

$$$$

Sample `C#Cc1cccc(Nc2ncnc3cc(OCCOC)c(OCCOC)cc23)c1` — what was its activity at 10 µM? 50

Next compound up: `CC1(C)CCC(CN2CCN(c3ccc(C(=O)NS(=O)(=O)c4ccc(NCC5CCOCC5)c([N+](=O)[O-])c4)c(Oc4cnc5[nH]ccc5c4)c3)CC2)=C(c2ccc(Cl)cc2)C1` 184

// next record C=CCc1ccccc1OCC(O)CNC(C)C (centres unmarked) 91

Next record, please: `Cc1cc(-c2ccccc2)nnc1NCCN1CCOCC1` 79

Then this compound: `Cc1cn(-c2cc(NC(=O)c3ccc(C)c(Nc4nccc(-c5cccnc5)n4)c3)cc(C(F)(F)F)c2)cn1` 99

Please do the same for `COc1ccc(CN2CCNCC2)c(OC)c1OC` as well. 100

Next up: `O=C(O)c1cc(=O)c2c(OCC(O)COc3cccc4oc(C(=O)O)cc(=O)c34)cccc2o1` 93

Same read-out for `COC(=O)N[C@H](C(=O)N1CCC[C@H]1c1nc(-c2ccc(-c3ccc(-c4c[nH]c([C@@H]5CCCN5C(=O)[C@@H](NC(=O)OC)C(C)C)n4)cc3)cc2)c[nH]1)C(C)C` ? 28

---

Molecular target: Trib2-Luciferase (Luc-Trib2) fusion (Homo sapiens, UniProt Q92519)
Sequence (Q92519 with tags, fused parts or gaps): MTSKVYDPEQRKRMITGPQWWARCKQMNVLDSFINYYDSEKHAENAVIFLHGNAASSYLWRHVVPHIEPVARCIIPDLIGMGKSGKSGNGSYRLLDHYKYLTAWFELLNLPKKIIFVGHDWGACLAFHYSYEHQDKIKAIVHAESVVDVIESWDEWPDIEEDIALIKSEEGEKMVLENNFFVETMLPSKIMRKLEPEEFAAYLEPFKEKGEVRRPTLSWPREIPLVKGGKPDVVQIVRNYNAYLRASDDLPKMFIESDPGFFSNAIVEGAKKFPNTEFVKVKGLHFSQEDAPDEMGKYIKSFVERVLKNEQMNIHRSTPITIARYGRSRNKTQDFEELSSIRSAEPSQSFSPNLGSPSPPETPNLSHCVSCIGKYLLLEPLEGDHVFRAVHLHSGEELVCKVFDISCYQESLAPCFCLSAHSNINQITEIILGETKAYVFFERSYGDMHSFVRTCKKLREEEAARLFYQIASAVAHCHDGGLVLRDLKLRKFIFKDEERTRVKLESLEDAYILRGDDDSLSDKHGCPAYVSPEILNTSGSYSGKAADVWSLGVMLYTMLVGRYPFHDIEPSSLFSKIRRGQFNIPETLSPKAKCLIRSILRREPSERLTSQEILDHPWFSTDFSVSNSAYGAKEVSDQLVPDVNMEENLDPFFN
Test: cell-based
Conditions: HFF, read-out: Luciferase activity (%)
Listed compounds paired with reported activity at 10 µM
# unit: % | format: bare number

Below, each entry is followed by its recorded activity at 10 µM result.
>  <Compound>
O=C(CCCN1CC=C(n2c(=O)[nH]c3ccccc32)CC1)c1ccc(F)cc1

>  <activity at 10 µM / %>
100

$$$$
>  <Compound>
O=C(O)CCNC(=O)c1ccccc1

>  <activity at 10 µM / %>
87

$$$$
>  <Compound>
CC(C)N1CCN(c2ccc(OCC3COC(Cn4cncn4)(c4ccc(Cl)cc4Cl)O3)cc2)CC1 (centres unmarked)

>  <activity at 10 µM / %>
82

$$$$
>  <Compound>
O=C(O)CCCc1ccc(N(CCCl)CCCl)cc1

>  <activity at 10 µM / %>
96

$$$$
>  <Compound>
CCOC(=O)[C@@H](N)Cc1ccc(-c2cc(O[C@H](c3ccc(Cl)cc3-n3ccc(C)n3)C(F)(F)F)nc(N)n2)cc1 [Telotristat etiprate]

>  <activity at 10 µM / %>
94

$$$$

Which activity at 10 µM value belongs to `CCCCc1nc(C)c(CC(=S)N(C)C)c(=O)n1Cc1ccc(-c2ccccc2-c2nnn[nH]2)cc1` ? 88

Same for `CC(C)C(=O)c1c(C(C)C)nn2ccccc12` 85

Continue with `CC(=O)N1C[C@H](O)C[C@H]1C(=O)O` 100
